- assay-notes: recombinant UMI read abundance after kanamycin selection (control-corrected) (log10(CPM+1)); higher = more efficient recombination; extreme values may be limits of the assay; sequences stand for … in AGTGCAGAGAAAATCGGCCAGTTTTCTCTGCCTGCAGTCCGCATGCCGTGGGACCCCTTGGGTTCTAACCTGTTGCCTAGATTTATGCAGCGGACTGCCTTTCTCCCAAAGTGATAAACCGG…AGGTTGGTTTCACT; site = the 11-nt donor;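 further: IS621 bridge recombinase in Escherichia coli cells against a fixed T5 target plasmid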
observable: recombinant UMI read abundance (log10)

GET /values?readout=recombinant UMI read abundance (log10)&item= CTGGAAACATGGACCGGTTTTCCCGGTAATCCGTATTTGCA (site CTGTAAACTTG)
0.123

Entry ACGATGACATGGACCGGTTTTCCCGGTAATCCGTATTTGCA (site ACGATGACTTG) : reported recombinant UMI read abundance (log10) = ?
3.16

State the recorded recombinant UMI read abundance (log10) for this entry: GAAATCTCATGGACCGGTTTTCCCGGTAATCCGTATTTGCG (site GAAATCTCTCG)
2.44

Query: recombinant UMI read abundance (log10); subject: ATCCAAGCATGGACCGGTTTTCCCGGTAATCCGTATTTGAT (site ATCCAAGCTTT)
0.0123

So what does the record say about recombinant UMI read abundance (log10) for TGTTCGCCATGGACCGGTTTTCCCGGTAATCCGTATTTGTA (site TGTTCGCCTTA) ?
0.0127

// recombinant UMI read abundance (log10) lookup, key: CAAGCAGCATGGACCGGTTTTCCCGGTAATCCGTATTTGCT (site CCAGCAGCTAG)
0.00438

Can you share its recombinant UMI read abundance (log10)? I mean this sequence: GACAAACCATGGACCGGTTTTCCCGGTAATCCGTATTTGCT (site GACAAACCTAC)
0

Which recombinant UMI read abundance (log10) value belongs to CGACACGCATGGACCGGTTTTCCCGGTAATCCGTATTTGTT (site CGACACGCTAA) ?
2

What value of recombinant UMI read abundance (log10) has been reported for the following sequence? GTTGGCGCATGGACCGGTTTTCCCGGTAATCCGTATTTGTG (site GTTGGCGCTCA)
0.74

Entry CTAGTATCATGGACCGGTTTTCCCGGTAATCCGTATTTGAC (site CTACTTTCTGT) : reported recombinant UMI read abundance (log10) = ?
0

Report recombinant UMI read abundance (log10) for GAAACACCATGGACCGGTTTTCCCGGTAATCCGTATTTGAG (site GAAACACCTCT) please.
0.0146

Need recombinant UMI read abundance (log10) of GGGCTCACATGGACCGGTTTTCCCGGTAATCCGTATTTGAT (site GAGCTCACTAT) , thanks.
0.00773

# input sequence: CTGCTACCATGGACCGGTTTTCCCGGTAATCCGTATTTGGG (site CTGCTACCTCC) ; wanted: its recombinant UMI read abundance (log10)
0.0335

Fill in: recombinant UMI read abundance (log10) of CACGGCGCATGGACCGGTTTTCCCGGTAATCCGTATTTGTT (site CACGGCTCTAA) is ___
1.22

Could you tell me which recombinant UMI read abundance (log10) is on file for GGCAATCCATGGACCGGTTTTCCCGGTAATCCGTATTTGTA (site GGCAATCCTTA) ?
0.264

Query (sequence): ATGGAGGCATGGACCGGTTTTCCCGGTAATCCGTATTTGTG (site TTGGAGGCTCA) ; field requested: recombinant UMI read abundance (log10)
0.765

Report recombinant UMI read abundance (log10) for AAGACCGCATGGACCGGTTTTCCCGGTAATCCGTATTTGCC (site AAGACCGCTGG) please.
2.73

Which recombinant UMI read abundance (log10) is reported for this sequence? CACTTGGCATGGACCGGTTTTCCCGGTAATCCGTATTTGAA (site CACTTGGCTTC)
0.236
